- Tested on: PC-3
- PROCEDURE_DETAILS: Antiproliferative activity against human PC-3 cells assessed as inhibition of cell proliferation measured after 72 hrs by MTT assay
- Type: functional, cell-based
- CONDITION_SUMMARY: PC-3, 72 h
PROPERTY_LABEL: IC50 (µM)

Answered examples (4):
- MOL_SMILES: "C/C(=N\\Nc1ccc(C(=O)NCCc2c(C)[nH]c3ccccc23)cn1)c1ccccn1"
  UNIT: "µM"
  ENDPOINT_RESULT: 0.406
- MOL_SMILES: "Cc1ccc(/C=N/NC(=S)Nc2ccc(C(=O)NCCc3c[nH]c4ccc(C)cc34)cc2)nc1"
  UNIT: "µM"
  ENDPOINT_RESULT: 0.081
- MOL_SMILES: "Cc1ccc(/C=N/NC(=S)Nc2ccc(C(=O)NCCc3c(C)[nH]c4ccccc34)cc2)nc1"
  UNIT: "µM"
  ENDPOINT_RESULT: 0.054
- MOL_SMILES: "Cc1[nH]c2ccccc2c1CCNC(=O)c1ccc(NC(=S)N/N=C/c2ccccn2)cc1"
  UNIT: "µM"
  ENDPOINT_RESULT: 0.091

(A) Cc1[nH]c2ccccc2c1CCNC(=O)c1ccc(NC(=S)N/N=C/c2ccc(O)cn2)cc1
(B) Cc1[nH]c2ccccc2c1CCNC(=O)c1ccc(NC(=S)N/N=C2/C(=O)Nc3ccccc32)cc1
(C) Cc1ccc(/C=N/NC(=S)NCCc2c[nH]c3ccccc23)nc1
(D) COc1ccc2[nH]cc(CCNC(=O)c3ccc(NC(=S)N/N=C/c4ccccn4)cc3)c2c1
// ascending sort on recorded IC50 Lab note: final answer is the ordered label list.
D, C, A, B
(D: 0.133 µM, C: 0.601 µM, A: 1.5 µM, B: 17 µM)

###

- Test system: PC-3
- PROCEDURE_DETAILS: Antiproliferative activity against human PC-3 cells assessed as inhibition of cell proliferation measured after 72 hrs by MTT assay
- Type: functional, cell-based
- CONDITION_SUMMARY: PC-3, 72 h
PROPERTY_LABEL: IC50 (nM)

Answered examples (10):
- COMPOUND: "COc1ccc(/C=N/NC(=S)Nc2ccc(C(=O)NCCc3c[nH]c4ccc(OC)cc34)cc2)nc1"
  IC50 / nM: 93
- COMPOUND: "C/C(=N\\NC(=S)Nc1ccc(C(=O)NCCc2c(C)[nH]c3ccccc23)cc1)c1ccccn1"
  IC50 / nM: 707
- COMPOUND: "Cc1ccc(/C=N/NC(=S)Nc2ccc(C(=O)NCCc3c[nH]c4ccccc34)cn2)nc1"
  IC50 / nM: 512
- COMPOUND: "Cc1ccc(/C=N/NC(=S)NCc2ccc(C(=O)NCCc3c[nH]c4ccccc34)cc2)nc1"
  IC50 / nM: 1420
- COMPOUND: "COc1ccc2[nH]cc(CCNC(=O)c3ccc(NC(=S)N/N=C/c4ccc(C)cn4)cc3)c2c1"
  IC50 / nM: 61
- COMPOUND: "Cc1ccc(/C=N/NC(=S)NC2CCC(C(=O)NCCc3c[nH]c4ccccc34)CC2)nc1 (stereo unspecified)"
  IC50 / nM: 2220
- COMPOUND: "Cc1[nH]c2ccccc2c1CCNC(=O)c1ccc(NC(=S)N/N=C/c2ccc(Br)cn2)cc1"
  IC50 / nM: 322
- COMPOUND: "Cc1[nH]c2ccccc2c1CCNC(=O)c1ccc(NC(=S)N/N=C/c2ccc(Cl)cn2)cc1"
  IC50 / nM: 454
- COMPOUND: "COc1ccc2[nH]cc(CCNC(=O)c3ccc(NC(=S)N/N=C/c4ccc(O)cn4)cc3)c2c1"
  IC50 / nM: 2480
- COMPOUND: "Cc1ccc(/C=N/NC(=S)Nc2ccc(C(=O)NCCc3c[nH]c4ccccc34)cc2)nc1"
  IC50 / nM: 241

(I) Cc1[nH]c2ccccc2c1CCNC(=O)c1ccc(NC(=S)N/N=C/c2ccc(C(=O)O)cn2)cc1
(II) COc1ccc2[nH]cc(CCNC(=O)c3ccc(NC(=S)N/N=C(\C)c4ccccn4)cc3)c2c1
(III) Cc1ccc(/C=N/NC(=S)Nc2ccc(C(=O)NCCc3c[nH]c4ccc(Cl)cc34)cc2)nc1
// ascending sort on recorded IC50 Lab note: final answer is the ordered label list.
III, II, I

(P) Cc1[nH]c2ccccc2c1CCNC(=O)c1ccc(NC(=S)N/N=C/c2ccccc2O)cc1
(Q) COc1ccc(/C=N/NC(=S)Nc2ccc(C(=O)NCCc3c(C)[nH]c4ccccc34)cc2)nc1
Hello, I am sorting some records. Could you say if P or Q has the smaller IC50 value? Could you answer with the label of the item you picked?
Q
